Data provenance is patent US10208045B2.

- system-tested: Full length EN PA (influenza endonuclease) (Influenza A virus)
endpoint: IC50

CCCN1C[C@@H](C2c3cccc(F)c3CCc3c(F)cccc32)n2ncc(=O)c(O)c2C1=O	≥ 1000 nM
CN1C[C@H]([C@H](c2ccccc2)n2cc(I)c(I)n2)n2ncc(=O)c(O)c2C1=O	< 250 nM
[2H]C([2H])([2H])C([2H])(N1C[C@H](C(c2ccccc2)c2ccccc2)n2ncc(=O)c(O)c2C1=O)C([2H])([2H])[2H]	< 250 nM
O=C1NC[C@H](C(c2ccccc2)c2ccccc2)n2ncc(=O)c(O)c21	< 250 nM
CC(C)N1C[C@H](C(c2cccs2)c2cccs2)n2ncc(=O)c(O)c2C1=O	< 250 nM
CCn1cc([C@@H](c2ccccc2)[C@H]2CN(C)C(=O)c3c(O)c(=O)cnn32)c2ccc(Br)cc21	250 to 1000 nM

Ask: What measured IC50 is associated with CCN1C[C@H](C2c3ccccc3CCc3ccccc32)n2ncc(=O)c(OC(C)=O)c2C1=O on Full length EN PA (influenza endonuclease) (Influenza A virus)?
Reply: < 250 nM
